- Test system: CCD-18Co
- experiment: Cell-based assay, anti-proliferative activity (Cell Counting Kit-8, 72 hours)
- measurement setup: Homo sapiens; CCD-18Co cells, Cell Counting Kit-8, 72 hours; read-out: IC50 (μM) CCD-18Co
Criterion: IC50 strictly less than 3 µM. Met: yes (1). Not met: no (0).

// below: answered compounds
compound	category
COc1cc(OC2CCCC2)c(-c2cn3ccc(N4CCOCC4)cc3n2)cc1Cl [Example 90]	no (0)
COc1cc(OCCCN(C)C)c(-c2cn3ccc(N4CCN(S(=O)(=O)N(C)C)CC4)cc3n2)cc1Cl [Example 196]	yes (1)
COc1cc(OCCCN(C)C)c(-c2cn3ccc(N4CCC(NS(C)(=O)=O)CC4)cc3n2)cc1Cl [Example 164]	no (0)
COc1cc(OCCCN(C)C)c(-c2cn3ccc(N4CCC(N)CC4)cc3n2)cc1Cl [Example 150]	yes (1)
CCS(=O)(=O)N1CCCN(c2ccn3cc(-c4cc(Cl)c(OC)cc4OC)nc3c2)CC1 [Example 206]	yes (1)
COC(=O)NC1CCN(c2ccn3cc(-c4cc(Cl)c(OC)cc4OC)nc3c2)CC1 [Example 122]	no (0)
COc1cc(OC)c(-c2cn3ccc(N4CCC(N)C4)cc3n2)cc1Cl (centres unmarked) [Example 33]	no (0)
COc1cc(OC)c(-c2cn3ccc(N4CCC(CCN)CC4)nc3n2)cc1Cl [Example 67]	no (0)
COc1cc(OC)c(-c2cn3ccc(C4=CCN(CCN5CCCCC5)CC4)cc3n2)cc1Cl [Example 147]	no (0)
COc1cc(OC)c(-c2cn3ccc(N4CCN(S(=O)(=O)C5CCCC5)CC4)nc3n2)cc1Cl [Example 204]	no (0)

Q: Problem: For the compound COc1cc(OC)c(-c2cn3ccc(N4CCCNCC4)cc3n2)cc1Cl [Example 189] , is IC50 under 3 µM?
Result: no (0)
